# Test system: 786-0 renal
# ASSAY_SUMMARY: NCI-60 one-dose screen, 48 h (100 = growth as untreated, 0 = no growth, -100 = all killed)
# SETUP_CONDITIONS: 10 µM unless noted
The panel holds about 83,000 compounds, 20% with a hit somewhere; the sample as a whole holds those more often.
Output rule met for records whose growth is lower than 70%, rule not met for records at or above 70%.

The following compounds have reported results that may help.
Cn1c(=O)n(C)c2cc(CNCCNc3ccnc4cc(Cl)ccc34)ccc21 = rule met
CCOC(=O)c1cc2c(n1Cc1ccccc1OC)-c1oncc1CCC2 = rule met
O=C(Nc1ccc(-c2nc3ccc(NC(=O)c4ccc(Cl)cc4)cc3[nH]2)cc1)c1ccc(Cl)cc1 = rule met
COc1cc(/C=C2\CCC/C(=C\c3cc(CN4CCCCC4)c(O)c(OC)c3)C2=O)cc(CN2CCCCC2)c1O = rule not met
CCOC(=O)C1(Cc2ccccc2)CCN(Cc2cccc(OC)c2O)CC1 = rule met

[Q] Hi there! Is growth for COc1ccc(C2C3=C(COC3=O)N(CCO)c3cc4c(cc32)OCCO4)cc1 (stereo unspecified) below 70%, do you know?
[A] rule not met

[Q] Hi there! Is growth for Oc1c(CN2CCN(c3ccccc3F)CC2)cc(Br)c2cccnc12 below 70%, do you know?
[A] rule met

[Q] Hi there! Is growth for Cc1ccc(C)c(-c2csc(Nc3ccc(C)c(C)c3)n2)c1 below 70%, do you know?
[A] rule met

[Q] Hi there! Is growth for Clc1ccc(Oc2ccc(Nc3ncnc4onc(-c5ccccc5)c34)cc2)c(Cl)c1 below 70%, do you know?
[A] rule not met

[Q] Hi there! Is growth for COc1ccc(/C=C/C(=O)c2c(C)nc3ccccc3c2/C=C/c2ccccc2)cc1O below 70%, do you know?
[A] rule not met

[Q] Hi there! Is growth for O=C(Nc1ccc(Cl)cc1F)c1cc(I)ccc1O below 70%, do you know?
[A] rule not met

[Q] Hi there! Is growth for c1ccc(CNc2nc(Nc3ccccc3)nc3ccccc23)cc1 below 70%, do you know?
[A] rule met

[Q] Hi there! Is growth for CCn1c(Cc2ccccc2Nc2c(Cl)cccc2Cl)nnc1SCC(=O)NN1C(=O)/C(=C/c2cccc(OC)c2OC)SC1=S below 70%, do you know?
[A] rule not met

* * *

# System: SF-268 CNS
# ASSAY_SUMMARY: NCI-60 one-dose screen, 48 h
# SETUP_CONDITIONS: 10 µM unless noted
This is part of a sample that, as a whole, favours compounds with a hit. Of some 83,000 tested, about 20% had one in any assay. Activity calls are given as the source filed them. The calls were made as follows: active = growth percent below 10; inactive = the rest.
Valid outcomes are listed here; reply with one: t (active), f (inactive)

The following compounds have reported results that may help.
O=C(Nc1ccc(I)cc1F)c1cc(F)ccc1O = t
CCCCCCc1cc2cc(-c3csc(/C=C/c4ccccc4)n3)c(=O)oc2cc1O = f

[Q] Called result for COc1cc2cc3c(=O)n4c(cc5cc(OC)ncc54)c(=O)n3c2cn1
[A] f

[Q] Called result for O=C(Nc1ccc(Cl)cc1)N1CCN(c2ccc3nncn3n2)CC1
[A] t

[Q] Called result for Cn1c2c(c(=O)[nH]c1=O)NC1=C(C(=O)c3ccccc31)C1(C=C(O)c3ccccc31)N2 (stereo unspecified)
[A] f

[Q] Called result for COc1ccc(CN2CCCC(C(=O)c3ccc(C(F)(F)F)cc3)C2)c(O)c1 (stereo unspecified)
[A] f
